Exercise: state measured Maximum inhibition rate (%) for each of the binders provided.
Target: T1, human OX40 on cells (CHO-K1/hu OX40) (human, UniProt P43489 29-277)
T1 construct: whole, on cells; Also used here for OX40 on the HEK293/OX40/NF-kb reporter cells and on human T cells in the functional assays; also called CHO-K1/OX40; human OX40 cells
T1 sequence (looked up): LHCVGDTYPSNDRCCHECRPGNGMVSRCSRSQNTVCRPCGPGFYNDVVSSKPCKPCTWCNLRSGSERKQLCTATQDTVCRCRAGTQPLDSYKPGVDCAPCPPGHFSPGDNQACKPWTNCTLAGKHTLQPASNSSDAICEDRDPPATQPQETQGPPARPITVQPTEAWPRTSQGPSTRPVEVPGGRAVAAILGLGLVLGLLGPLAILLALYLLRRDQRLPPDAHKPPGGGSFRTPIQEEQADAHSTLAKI
Test: FACS, blocking of biotin-human OX40L on CHO-K1/hu OX40 cells
Quick reminder: number only, in %, skip the unit.

Using the record for PR002064 (antibody, human IgG1, V domains shown, no light chain; also called anti-OX40 HCAb antibody) VH: EVQLVETGGGLVQPGGSLRLSCAASGFTFSSYAMSWVRQAPGKGQEWVSAISGSGGSTFYADSVRGRFTISRDNSKNTLYLQMSSLRAEDTAVYYCANGMTGTTDVDYWGQGTLVTVSS , state its measured Maximum inhibition rate (%). 20

Using the record for PR002059 (antibody, human IgG1, V domains shown, no light chain; also called anti-OX40 HCAb antibody) VH: EVQLLESGGGLVQPGGSLRLSCVVSGLTFSSYAMSWVRQAPGKGREWVSAISGRGGSTFYADSVRGRFTISRDNSKNTLYLQMNSLRAEDTAVYYCANGMTGSTDVDYWGQGTLVTVSS , state its measured Maximum inhibition rate (%). 79
